Biological target: JAK2 JH1 (Homo sapiens)
Construct: 5 μL/well of 2×JAK1 JH1/JAK2 JH1/JAK3 JH1/TYK2 JH1 kinase solutions
Sequence (O60674 849-1124 limits assumed): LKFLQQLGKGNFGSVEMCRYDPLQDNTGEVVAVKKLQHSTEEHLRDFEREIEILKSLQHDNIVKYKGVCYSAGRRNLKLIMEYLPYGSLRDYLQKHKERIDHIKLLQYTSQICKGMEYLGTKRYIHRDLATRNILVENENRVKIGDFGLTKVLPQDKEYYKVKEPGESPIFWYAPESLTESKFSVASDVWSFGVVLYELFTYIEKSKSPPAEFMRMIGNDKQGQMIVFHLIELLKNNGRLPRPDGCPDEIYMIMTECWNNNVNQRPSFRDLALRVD
Test: JAK2 JH1 kinase inhibition (HTRF)
Type: biochemical
Conditions: read-out: Inhibition on kinase activity (IC50, μM) JAK2 JHI
Item-by-item account of IC50

(Q) For the compound CCONC(=O)c1nnc(NC(=O)C2CC2)cc1Nc1cccc(-c2nc[nH]n2)c1OC [Compound 1] , report IC50.
(A) > 10 µM

Could you now look at the following compound, please?
(Q) Input CCONC(=O)c1nnc(NC(=O)C2CC2)cc1Nc1cccc(-c2ncn(CCOC)n2)c1OC [Compound 2] , output reported IC50.
(A) > 10 µM
